assay: Toxicity liver stage against HepG2, at 10uM; format: cell-based; set-up: test concentration 10 uM, cell line HepG2-A16-CD81EGFP; conditions: human, HepG2-A16-CD81EGFP cells; read-out: INHIBITION
TEST_READOUT: cytotoxicity at 10 µM

# annotated cases, reported cytotoxicity at 10 µM shown
COMPOUND: Cn1cnc2c(-c3cccnc3)nc(C3CCN(S(C)(=O)=O)CC3)cc21
cytotoxicity at 10 µM: -118%
--
COMPOUND: Cc1cc(NC2CCN(Cc3ccccn3)CC2)n2nc(C)c(C)c2n1
cytotoxicity at 10 µM: 0.951%
--
COMPOUND: Cc1cc(C)n(Cc2cccc(C(=O)N(CCC#N)CCC#N)c2)n1
cytotoxicity at 10 µM: 13.1%
--
COMPOUND: O=C(NCCCNC(=O)c1ccccc1)Nc1ccc(F)cc1F
cytotoxicity at 10 µM: 5.55%
--
COMPOUND: O=C1CN(C(=O)C2CCC3(CC2)CNC(=O)c2ccccc2O3)CCN1 (stereo unspecified)
cytotoxicity at 10 µM: -11.6%
--
COMPOUND: CN1CC(C(=O)NCCc2ccn(-c3ccc(F)cc3)n2)CC1=O (stereo unspecified)
cytotoxicity at 10 µM: 3.38%

Request: Fill in cytotoxicity at 10 µM for record `CC(C)N(CC(N)=O)Cc1c(Cl)ccc2cccnc12`
Response: 11.8%

Request: State, in one line, measured cytotoxicity at 10 µM of O[C@@H]1CC(CNCc2ccccn2)(COc2cccnc2)C[C@@H]1O (stereo partly specified)
Response: -10.3%

Request: Give the measured cytotoxicity at 10 µM for `CN(Cc1cccnc1)[C@@H]1CN(C(=O)NC2CC2)[C@@H]2CCCO[C@H]12`
Response: 2.75%

Request: Item `Cc1ccc(-c2ccc(C(=O)NCCC(=O)N(C)C)c(F)c2)cc1` : provide cytotoxicity at 10 µM
Response: -0.0916%

Request: Give the measured cytotoxicity at 10 µM for `CCN(CC(=O)NC)C(=O)Cc1nc(-c2ccco2)oc1C`
Response: 22.8%
